target: UniProtKB O14980; assay: Binding affinity to CRM1 (unknown origin) assessed as inhibition of CRM1 binding to IAF-conjugated NES PKI by measuring dissociation constant in the presence of RanGTP by competitive MST analysis
pKd: −log10 of the molar value.
REPORTED PROPERTY: pKd

(P) O=C(O)c1ccc(N2CCN(c3cc(C(F)(F)F)ccc3C(F)(F)F)CC2)c(NC(=O)c2ccc(Br)cc2)c1
(Q) O=C(O)c1ccc(N2CCN(c3cc(C(F)(F)F)ccc3C(F)(F)F)CC2)c(NC(=O)c2ccc(Cl)cc2)c1
Please compare: P and Q . Report which one has the smaller pKd value. Selection: enter the item's label.
Q
(Q: 5.44, P: 5.74)

(P) O=C(O)c1ccc(N2CCN(c3cc(C(F)(F)F)cc(C(F)(F)F)c3)CC2)c(NC(=O)c2ccc(Br)cc2)c1
(Q) Cc1ccc(C)c(N2CCN(c3ccc(C(=O)O)cc3NC(=O)c3ccc(Cl)cc3)CC2)c1
Please compare: P and Q . Report which one has the smaller pKd value. Selection: enter the item's label.
Q
(Q: 4.92, P: 5.80)

###

target: Exportin-1 (Homo sapiens, UniProt O14980); assay: Inhibition of CRM1 (unknown origin) binding to GST-tagged NES PKI at 100 uM incubated for 1.5 hrs by Coomassie brilliant blue staining based pull-down assay
Sequence (O14980 whole entry): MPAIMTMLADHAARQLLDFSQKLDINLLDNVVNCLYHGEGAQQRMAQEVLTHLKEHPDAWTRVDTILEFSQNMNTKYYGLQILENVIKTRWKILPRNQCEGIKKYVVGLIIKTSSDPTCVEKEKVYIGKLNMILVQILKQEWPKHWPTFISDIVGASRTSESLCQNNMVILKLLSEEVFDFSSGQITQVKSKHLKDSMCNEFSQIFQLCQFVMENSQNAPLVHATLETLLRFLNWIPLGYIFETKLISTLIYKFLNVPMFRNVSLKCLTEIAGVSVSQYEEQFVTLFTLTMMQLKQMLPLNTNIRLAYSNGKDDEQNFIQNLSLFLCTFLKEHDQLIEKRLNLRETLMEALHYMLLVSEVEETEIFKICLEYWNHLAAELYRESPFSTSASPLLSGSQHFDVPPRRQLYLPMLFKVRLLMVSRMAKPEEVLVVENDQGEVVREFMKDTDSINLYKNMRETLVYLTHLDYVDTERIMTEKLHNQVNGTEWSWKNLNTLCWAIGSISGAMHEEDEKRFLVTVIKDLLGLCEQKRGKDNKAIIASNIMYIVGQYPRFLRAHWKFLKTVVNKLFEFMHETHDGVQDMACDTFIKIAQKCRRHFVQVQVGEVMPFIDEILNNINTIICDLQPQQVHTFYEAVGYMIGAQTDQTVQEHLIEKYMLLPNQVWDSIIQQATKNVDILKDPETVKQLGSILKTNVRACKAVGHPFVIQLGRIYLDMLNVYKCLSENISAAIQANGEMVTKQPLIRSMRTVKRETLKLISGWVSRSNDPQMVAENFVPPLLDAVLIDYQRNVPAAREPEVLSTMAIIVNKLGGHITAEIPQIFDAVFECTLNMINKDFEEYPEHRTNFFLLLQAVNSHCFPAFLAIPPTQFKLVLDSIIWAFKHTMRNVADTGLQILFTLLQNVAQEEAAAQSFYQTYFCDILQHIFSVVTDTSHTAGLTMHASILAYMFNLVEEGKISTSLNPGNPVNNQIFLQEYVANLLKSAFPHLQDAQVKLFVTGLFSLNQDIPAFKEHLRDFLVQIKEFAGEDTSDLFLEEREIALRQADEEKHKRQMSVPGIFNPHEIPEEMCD
Activity calls are given as the source filed them. The rule behind the calls is not given here.
Lab note: assign the record to one of active, inactive

Observe how each entry below is paired with its result.
Test call, this molecule: COC(=O)c1ccc(N2CCN(c3cc(Cl)ccc3C)CC2)c(NC(=O)c2ccc(Br)cc2)c1
inactive

And the next one, Cc1ccc(C)c(N2CCN(c3ccc(C(=O)O)cc3NC(=O)c3ccc(Cl)cc3)CC2)c1 ?
active

And the next one, COC(=O)c1ccc(N2CCN(c3cc(Cl)ccc3C)CC2)c(NC(=O)c2ccc(Cl)cc2)c1 ?
inactive

And the next one, COC(=O)c1ccc(N2CCN(c3cc(Cl)ccc3C)CC2)c(NC(=O)c2ccc(C(F)(F)F)cc2)c1 ?
inactive

Continue with the molecule presented below.
Test call, this molecule: COC(=O)c1ccc(N2CCN(c3ccccc3C(F)(F)F)CC2)c(NC(=O)c2ccc(Br)cc2)c1
inactive

###

target: Exportin-1 (Homo sapiens, UniProt O14980); experiment: Inhibition of CRM1 (unknown origin) binding to GST-tagged NES PKI assessed as CRM1/NES band ratio incubated for 1.5 hrs by Coomassie brilliant blue staining based pull-down assay (reference value: 1.00); parameters: concentration or dose not given beside the values
REPORTED PROPERTY: Ratio

Any idea what Ratio was measured for O=C(O)c1ccc(N2CCN(c3ccc(F)cc3)CC2)c(NS(=O)(=O)c2ccc(F)c(F)c2)c1 ?
0.88

(I) Cc1ccc(C)c(S(=O)(=O)Nc2cc(C(=O)O)ccc2N2CCN(c3ccc(F)cc3)CC2)c1
(II) O=C(O)c1ccc(N2CCN(c3cccc(Cl)c3)CC2)c(NS(=O)(=O)c2cccc(F)c2)c1
Please compare: I and II . Report which one has the smaller Ratio value. Selection: enter the item's label.
II

###

Each item that follows carries a reported solubility.
test: Solubility of the compound in water; format: physicochemical

Example entries and their recorded answers appear below.
Any idea what solubility was measured for O=C(O)c1ccc(N2CCN(c3cc(C(F)(F)F)cc(C(F)(F)F)c3)CC2)c(NC(=O)c2ccc(Br)cc2)c1 ?
< 0.14 µg/mL

And the next one, O=C(O)c1ccc(N2CCN(c3cc(C(F)(F)F)ccc3C(F)(F)F)CC2)c(NC(=O)c2ccc(Cl)cc2)c1 ?
< 0.14 µg/mL

Shifting focus to the compound that follows.
Any idea what solubility was measured for O=C(O)c1ccc(N2CCN(c3cc(C(F)(F)F)ccc3C(F)(F)F)CC2)c(NC(=O)c2ccc(Br)cc2)c1 ?
< 0.14 µg/mL

Sourced from ChEMBL document CHEMBL5376006
